B1: TPD52L2 (parent)
chain: EAEEEELRAELTKVEEEIVTLRQV

Variants of: B1
TEST SUMMARY: protein stability index of a GFP-peptide fusion (GPS, HEK-293T) (PSI 1-6); higher = more stable;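 also: lentivirally expressed fusions sorted by FACS into six bins by GFP to DsRed ratio, PSI derived from sequencing read proportions per bin multiplied by bin number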
EXPERIMENTAL SETUP: c terminus: a fixed tail appended
OBSERVATION TYPE: protein stability index
Give bare numbers.

VARIANT DESCRIPTOR	protein stability index
E17L	4.24

Hi! Can you tell me protein stability index for each of these variants?
1. V19I
2. T12M
3. K13W
4. V14Y

result:
2.96
2.65
4.21
5.05

Return reported protein stability index values for all items listed beneath this line.
1. I18A
2. A9P

result:
[5.93, 5.11]

I would be grateful if you could provide protein stability index for each of the following entries.
1. V14C
2. Q23H
3. R22K
4. E1C
5. T12Q

result:
[3.54, 3.6, 3.8, 2.89, 3.87]

For each entry beneath this line, provide reported protein stability index.
1. K13T
2. I18F
3. E1M
4. T20I
5. V14R
6. E17N
7. T20L

result:
1: 5.15; 2: 4.52; 3: 2.53; 4: 3.06; 5: 5.35; 6: 4.54; 7: 2.91

// for each variant below, give its protein stability index
1. T20G
2. E5S
3. A2M

result:
1: 3.86; 2: 2.35; 3: 2.8

The following variants each have a reported value; give each one's protein stability index.
1. T20D
2. A2L

result:
1. 5.3
2. 2.93

Okay, here is my list. What is protein stability index for each of these?
1. R8C
2. T20Y
3. L7A
4. L7C
5. E4V
6. E6N
7. E3F
8. V24M

result:
[4.16, 2.77, 5.44, 4.93, 3.63, 3.15, 2.45, 3.42]

Please state, for each entry, its recorded protein stability index.
1. Q23G
2. L7G
3. E4F
4. A2P
5. L11P

result:
[4.54, 5.14, 2.79, 4.03, 5.64]
